TEST SYSTEM: T1, cyno pro-myostatin (cynomolgus monkey, Biotinylated for capture in the SPR assay (site not stated). The native form is a disulfide-linked homodimer, partly furin-cleaved; one chain is given.)
T1 construct: also called proGDF8 (cynomolgus); cynomolgus monkey pro-myostatin
PROTOCOL DESCRIPTION: SPR Biacore 8K, biotin-antigen captured

BINDER	koff
Ab128 (antibody, human IgG4 S228P, kappa, V domains shown) VH: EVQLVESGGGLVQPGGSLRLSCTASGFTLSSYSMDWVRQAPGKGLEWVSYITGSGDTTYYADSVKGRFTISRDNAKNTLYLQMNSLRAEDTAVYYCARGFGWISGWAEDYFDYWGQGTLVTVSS VL: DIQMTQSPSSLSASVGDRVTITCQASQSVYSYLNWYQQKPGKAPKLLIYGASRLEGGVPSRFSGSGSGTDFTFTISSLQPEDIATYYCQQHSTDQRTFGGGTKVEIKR	0.000736 s⁻¹
